Test Method Notes: yeast display, Sf9 membrane polyspecificity reagent, FACS + sequencing; frameworks hold sequencing errors
Assay Metric: polyreactivity (PSR sort gate)

Sample records with polyreactivity (PSR sort gate):
- Item Sequence: "QVQLVESGGGLVQAGGSLRLSCAASGSIFNPNAMGWYRQAPGKERELVAAISYSDATTYYADSVKGRFTISRDNAKNTVYLQMNSLKPEDTAVYYCAAEPAAGDYDYWGQGTQVTVSS"
  Result: "high polyreactivity"
- Item Sequence: "QVQLVESGGGLVQAGGSLRLSCADSGFIFSHNVMGWYRQAPGKERELVAAISASGGSTYYADSVKGRFTISRDNAKNTVYLQMNSLKPEDTAVYYCAKVTWGTVWYRSPSEYDYWGQGTQVTVSS"
  Result: "low polyreactivity"
- Item Sequence: "QVQLVESGGGLVQAGGSLRLSCAASGSTFVSYAMGWSRQAPGKERELVAAISISDSSTYYADSVKGRFTISRDNAKNTVFLQMNSLKPEDTAVYYCNRYDYWGQGTQVTVSS"
  Result: "low polyreactivity"
- Item Sequence: "QVQLVESGGGLVQAGGSLRLSCSASGSTFDTYAMGWYRKAPGKERELVAAISRSGGSTYYADSVKWRFTISRDNAKNTVYLQMNSLKPEDTAVYFCNALSGDLAGDYWGQGTQVTVSS"
  Result: "high polyreactivity"

Continue with the next sequence.
[Q] For the sequence shown here, QVQLVESGGGLVQAGGSLRLTCAASGRIFSANAMGWYRKAPGKERELVATISTGGGRTYYADSVKGRFTISRDYAKNTVYLQMNSLKAEDTAVYYCNDTGNYARFLYYSWCQGTQVTVSS , give the reported polyreactivity (PSR sort gate).
[A] high polyreactivity

====

Test Method Notes: yeast display, Sf9 membrane polyspecificity reagent, FACS + sequencing; frameworks hold sequencing errors
Assay Metric: polyreactivity (PSR sort gate)

Sample records with polyreactivity (PSR sort gate):
- Item Sequence: "QVQLQESGGGLVQAGGSLRLTCAASGSIFLNSEMGWYRQAPGKERELVAAIATGTSTNYADSVKGRFTISRDNAKNTVYLQMNSLKPEDTAVYYCATYHYWGQGTQVTVSS"
  polyreactivity (PSR sort gate): "low polyreactivity"
- Item Sequence: "QVQLVESGGGLVQAGGSLRLSCAASGFTFNSYAMGWYRQAPGKERELVAAITSSGGRTYYADSVKGRFTISRDNAKNTVYLQMNSLKPEDTAVYYCAARRGGKVATIYDYWGQGTQVTVSS"
  polyreactivity (PSR sort gate): "low polyreactivity"
- Item Sequence: "QVQLVESGGGLVQAGGSLRLSCAASGRIVSRYAMGCYRQAPGKERELVADISSSGGSTYYADSVKGRFTISRDNAKNTVYLQMNSMKPEDTAVYDCAVRKKRQYTGDYWGQGTQETVSS"
  polyreactivity (PSR sort gate): "high polyreactivity"
- Item Sequence: "QVQLVESGGGLVQAGGSLRLSCAASGFIFRYYAMGWYRQAPGKERELVAAISRIGGSSYYADSVKGRFTISRDNAKNTVYLQMNSPKPEVTAVYYCAVAEGYYPAYLRDYWGQGTQVTVSS"
  polyreactivity (PSR sort gate): "high polyreactivity"

[Q] For the sequence shown here, QVQLVESGGGLVQAGGSLPLSCAASGRTFWAYAMGWYRQAPGKERELVAAITTSGGSTNYADSVKGRFTISRDNAKNTVYLQMNSLKPEDTAVYYCNADPTYHVVNGVGYWGQGTQVTVSS , give the reported polyreactivity (PSR sort gate).
[A] low polyreactivity
